B1: Osa-1-4 twister ribozyme (parent)
chain: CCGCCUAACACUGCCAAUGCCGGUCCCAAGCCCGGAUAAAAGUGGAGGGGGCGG

- Variants of: B1
- ASSAY: self-cleavage, relative activity (ratio to wild type); higher = more cleavage; co-transcriptional
Kindly return TRUE if reported self-cleavage is no lower than 0.1; return FALSE if it is lower.

{"columns": ["VARIANT_ID", "ASSIGNED_CLASS"],
 "data": [
  ["A16G A28C", "TRUE"],
  ["G30U U37A", "FALSE"],
  ["G22A G53A", "TRUE"],
  ["A17C G13A", "FALSE"],
  ["A36U G13C", "FALSE"],
  ["G49A G51A", "TRUE"],
  ["A36C G22C", "FALSE"],
  ["G35C U24C", "FALSE"],
  ["A7C G51A", "FALSE"],
  ["C27U G35A", "TRUE"],
  ["A38G C31G", "TRUE"],
  ["A28C G34C", "TRUE"],
  ["G45A U18G", "TRUE"],
  ["C26A G23C", "FALSE"],
  ["A38G A41U", "TRUE"],
  ["A39G U18A", "TRUE"],
  ["C11A G42A", "TRUE"],
  ["A16C G35A", "TRUE"],
  ["A8C G13C", "FALSE"],
  ["A36C C14G", "FALSE"],
  ["G35C G50A", "TRUE"],
  ["C33A G44C", "FALSE"],
  ["C11U C26G", "FALSE"],
  ["A7G G19U", "FALSE"],
  ["A38G G45U", "FALSE"],
  ["A16G G22A", "TRUE"],
  ["C33U G54A", "TRUE"],
  ["C21U G19C", "FALSE"],
  ["A28U A39U", "TRUE"],
  ["A38C G34C", "TRUE"],
  ["A28G U24C", "FALSE"],
  ["A28U A38C", "TRUE"],
  ["G34U G42C", "FALSE"],
  ["A17C G13U", "FALSE"],
  ["C9A U37G", "TRUE"],
  ["A36C C26U", "TRUE"],
  ["A8C C31A", "FALSE"],
  ["A29C C52G", "FALSE"],
  ["C33U G13A", "FALSE"],
  ["C33U G45C", "FALSE"],
  ["A39G G45C", "FALSE"],
  ["A17C C11A", "FALSE"],
  ["A46C G30U", "FALSE"],
  ["C21G G51C", "FALSE"],
  ["C27U G49C", "FALSE"],
  ["C32A U18G", "TRUE"]
]}
